- Target Desc: human apelin receptor (Homo sapiens, UniProt P35414)
- Construct: expressed in transfected cells
- Sequence (P35414 whole entry): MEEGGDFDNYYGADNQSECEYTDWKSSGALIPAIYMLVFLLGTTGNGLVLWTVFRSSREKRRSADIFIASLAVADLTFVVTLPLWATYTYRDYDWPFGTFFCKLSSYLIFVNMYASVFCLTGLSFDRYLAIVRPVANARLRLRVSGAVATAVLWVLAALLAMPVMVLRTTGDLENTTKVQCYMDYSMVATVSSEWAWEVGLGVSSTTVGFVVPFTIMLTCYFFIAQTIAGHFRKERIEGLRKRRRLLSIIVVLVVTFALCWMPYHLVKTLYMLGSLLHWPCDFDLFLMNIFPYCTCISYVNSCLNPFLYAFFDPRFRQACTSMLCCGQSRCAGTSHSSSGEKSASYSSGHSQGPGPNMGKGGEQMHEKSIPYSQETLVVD
- Test Details: Determination of agonism on the human apelin receptor by a calcium fluorescence assay (FLIPR)
- Format: cell-based
- Run Parameters: HEK293 cells stably transfected with human apelin receptor and Giaq protein, Fluo-4 calcium fluorescence, read-out: EC50 (APJ agonism)
Listed here are compounds together with their documented pEC50.
// pEC50 here means minus log10 of the molar concentration (mol/L)

CCC(CC)n1c(Cc2cscn2)nc2cc(C(=O)N[C@@H](CC(C)C)C(N)=O)ccc21 [Example 172] : 5.31
CCC(CC)n1c(Cc2cccs2)nc2cc(C(=O)N[C@@H](CC(C)C)C(=O)N(C)Cc3ccc(OC)cc3)ccc21 [Example 372] : 4.88
CCC(CC)n1c(Cc2cccs2)nc2cc(C(=O)N[C@@H](CC3CCCCC3)C(=O)O)ccc21 [Example 125] : 7.11
CCC(CC)n1c(Cc2cccs2)nc2cc(C(=O)N[C@H](Cc3noc(C4CC4)n3)CC(C)C)ccc21 [Example 475] : 5.55
CCC(CC)n1c(Cc2cccs2)nc2cc(C(=O)N[C@H](CC(=O)O)CC3CCCC3)ccc21 [Example 60] : 7.34
CCC(CC)n1c(Cc2cccs2)nc2cc(C(=O)N[C@@H](CC(C)C)C(=O)NCCC#N)ccc21 [Example 404] : 6.10

q: What measured pEC50 goes with CCC(CC)n1c(Cc2cccs2)nc2cc(C(=O)NC3(C(=O)O)CCCC3)ccc21 [Example 6] ?
a: 5.42

* * *

- Target Desc: human apelin receptor (Homo sapiens)
- Construct: expressed in transfected cells
- Test Details: Determination of agonism on the human apelin receptor by a calcium fluorescence assay (FLIPR)
- Format: cell-based
- Run Parameters: HEK293 cells stably transfected with human apelin receptor and Giaq protein, Fluo-4 calcium fluorescence, read-out: EC50 (APJ agonism)
Listed here are molecules together with their documented pEC50.
// pEC50 here means minus log10 of the molar concentration (mol/L)

Below are worked cases with known answers.
CCC(CC)n1c(Cc2cccs2)nc2cc(C(=O)N[C@@H](CC(C)C)C(=O)N(CC)CC3CCCCO3)ccc21 (stereo partly shown) : 5.39
CCC(CC)n1c(Cc2cccs2)nc2cc(C(=O)NC(CC(C)C)C(C)(C)C(=O)O)ccc21 (stereo not shown) [Example 62] : 6.71
CCC(CC)n1c(Cc2cccs2)nc2cc(C(=O)N[C@@H](CC(C)C)C(=O)NC3CCN(Cc4ccccc4)CC3)ccc21 : 5.72

Next, consider the following molecule.
q: What measured pEC50 goes with CC(C)C[C@@H](CC(=O)O)NC(=O)c1ccc2c(c1)nc(Cc1cncs1)n2[C@@H]1CCCC[C@H]1C ?
a: 7.32

* * *

- Target Desc: human apelin receptor (Homo sapiens, UniProt P35414)
- Construct: expressed in transfected cells
- Test Details: Determination of agonism on the human apelin receptor by a calcium fluorescence assay (FLIPR)
- Assay type: cell-based
- Run Parameters: HEK293 cells stably transfected with human apelin receptor and Giaq protein, Fluo-4 calcium fluorescence, read-out: EC50 (APJ agonism)
Property Name: EC50
State the value with its unit after it.

Below are worked cases with known answers.
CCC(CC)n1c(Cc2cccs2)nc2cc(C(=O)NC(C)(C(=O)O)C(C)C)ccc21 (stereo not shown) : 9870 nM
CCC(CC)n1c(CC2CCCC2)nc2cc(C(=O)NC(CC(=O)O)c3ccccc3)ccc21 (stereo not shown) : 14500 nM
CCC(CC)n1c(CC2CCCO2)nc2cc(C(=O)N[C@H](CC(=O)O)CC(C)C)ccc21 (stereo partly shown) : 820 nM

q: What measured EC50 goes with CCC(CC)n1c(Cc2cccs2)nc2cc(C(=O)N[C@@H](CC(C)C)C(=O)NCCC(F)(F)F)ccc21 ?
a: 2560 nM

q: Moving on to CCC(CC)n1c(Cc2cccs2)nc2cc(C(=O)N[C@@H](CC(C)C)C(=O)NC3CCN(C)CC3)ccc21
a: 111 nM

q: Moving on to CC(C)C[C@H](NC(=O)c1ccc2c(c1)nc(Cc1cccs1)n2CC1CCCCC1)C(=O)O
a: 18200 nM

q: Moving on to CCC(CC)n1c(Cc2cccs2)nc2cc(C(=O)N[C@@H](CC(C)C)C(=O)NCCc3n[nH]c(=O)[nH]3)ccc21
a: 1110 nM
